# TESTED_SYSTEM: PDK3 (Homo sapiens, UniProt Q15120)
# Sequence (Q15120 whole entry): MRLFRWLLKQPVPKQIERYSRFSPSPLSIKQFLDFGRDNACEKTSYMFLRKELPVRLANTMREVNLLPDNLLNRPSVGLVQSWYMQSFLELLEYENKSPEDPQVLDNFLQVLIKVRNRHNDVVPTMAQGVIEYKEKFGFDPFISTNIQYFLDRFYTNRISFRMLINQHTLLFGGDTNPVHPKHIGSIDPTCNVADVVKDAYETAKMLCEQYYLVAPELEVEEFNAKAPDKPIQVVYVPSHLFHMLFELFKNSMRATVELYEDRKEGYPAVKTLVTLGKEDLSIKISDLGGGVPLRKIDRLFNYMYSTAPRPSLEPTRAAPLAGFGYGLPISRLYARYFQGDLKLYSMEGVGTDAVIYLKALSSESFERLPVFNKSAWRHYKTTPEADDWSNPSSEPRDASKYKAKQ
# ASSAY_PROTOCOL: Isothermal titration calorimetry of PDK3 with EA
# Type: binding
# MEASUREMENT_SETUP: Ka3 (association constant), ITC, 25 °C, four-site model, site 3
OUTCOME_MEASURE: Kd (µM)
All answers are understood in µM, so give the number only.

The molecule O=c1oc2c(O)c(O)cc3c(=O)oc4c(O)c(O)cc1c4c23 [Ellagic acid] showed Kd equal to 25.6

----------
# TESTED_SYSTEM: UniProtKB Q15120
# ASSAY_PROTOCOL: Enzyme inhibition assay
# Format: biochemical
pIC50: −log10 of the molar value.
OUTCOME_MEASURE: pIC50

Noted pIC50 for O=c1oc2c(O)c(O)cc3c(=O)oc4c(O)c(O)cc1c4c23 , tested on UniProtKB Q15120: ~5.30
